Exercise: state measured microsomal CLint at 1 μM for each of the molecules provided.
assay: Intrinsic metabolic clearance determined in human liver microsomes; assay type: in vitro ADME; details: pH 7.4

Here are 3 molecules together with their reported answers.
MOLECULE: CCOC(=O)c1ncn2c1CN(C)C(=O)c1cc(F)ccc1-2
microsomal CLint at 1 μM: 39 µL/min/mg

MOLECULE: Oc1ccc2c3c1O[C@H]1[C@@H](O)CC[C@@]4(O)[C@@H](C2)N(CC2CCC2)CC[C@]314
microsomal CLint at 1 μM: < 10 µL/min/mg

MOLECULE: Cc1nnc2n1-c1ccc(Cl)cc1C(c1ccccc1)=NC2
microsomal CLint at 1 μM: < 10 µL/min/mg

Data request: I would be grateful if you could share the reported microsomal CLint at 1 μM for COC(=O)C1=C(C)NC(C)=C(C(=O)OCC(C)C)C1c1ccccc1[N+](=O)[O-] (stereo not shown) .
Data returned: > 1000 µL/min/mg

----------
Could you please report measured log10(microsomal CLint at 1 μM) for the items listed next?
test: Intrinsic metabolic clearance determined in human liver microsomes; type: in vitro ADME; details: pH 7.4
Plainly stated, the numbers are log10 of microsomal CLint at 1 μM given in µL/min/mg.

MOLECULE: COc1ccc([C@@H]2Sc3ccccc3N(CCN(C)C)C(=O)[C@@H]2OC(C)=O)cc1
log10(microsomal CLint at 1 μM): 1.54
--
MOLECULE: COCCc1ccc(OCC(O)CNC(C)C)cc1 (stereo not shown)
log10(microsomal CLint at 1 μM): 1.28
--
MOLECULE: CCCc1nn(C)c2c(=O)[nH]c(-c3cc(S(=O)(=O)N4CCN(C)CC4)ccc3OCC)nc12
log10(microsomal CLint at 1 μM): 1.99

For each of the items listed, what is its log10(microsomal CLint at 1 μM)?
1. C=CCc1ccccc1OCC(O)CNC(C)C (stereo not shown)
2. CN(C)CCCN1c2ccccc2Sc2ccc(Cl)cc21
3. Cc1ccc(O)c([C@H](CCN(C(C)C)C(C)C)c2ccccc2)c1
4. O=c1[nH]c2ccccc2n1CCCN1CCC(n2c(=O)[nH]c3cc(Cl)ccc32)CC1
5. CN1CCN2c3ncccc3Cc3ccccc3C2C1 (stereo not shown)
6. Cc1ncc2n1-c1ccc(Cl)cc1C(c1ccccc1F)=NC2

Data returned:
1: 2.11; 2: 1.67; 3: 2.06; 4: 2.22; 5: 1.04; 6: 2.59

----------
details: human, Caco-2, pH 7.4, with cyclosporine A 10 μM
Please mark class 1 if the recorded Papp at 2 h, 1 μM is equal to or greater than 30 ×10⁻⁶ cm/s, and class 0 if it falls below.

Worked set:
COMPOUND: Cc1nnc2n1-c1ccc(Cl)cc1C(c1ccccc1)=NC2
GROUP: class 1
//
COMPOUND: O=c1[nH]c2ccccc2n1CCCN1CCC(n2c(=O)[nH]c3cc(Cl)ccc32)CC1
GROUP: class 1
//
COMPOUND: C=CCc1ccccc1OCC(O)CNC(C)C (stereo not shown)
GROUP: class 1

Data request: Please indicate if the recorded Papp at 2 h, 1 μM for CC(C)(C)NC(=O)[C@@H]1C[C@@H]2CCCC[C@@H]2CN1C[C@@H](O)[C@H](Cc1ccccc1)NC(=O)[C@H](CC(N)=O)NC(=O)c1ccc2ccccc2n1 meets or exceeds 30 ×10⁻⁶ cm/s.
Data returned: class 0

Data request: Check this compound for Papp at 2 h, 1 μM at or above 30 ×10⁻⁶ cm/s: Cc1ccc(O)c([C@H](CCN(C(C)C)C(C)C)c2ccccc2)c1
Data returned: class 0

Data request: Record CCCc1nn(C)c2c(=O)[nH]c(-c3cc(S(=O)(=O)N4CCN(C)CC4)ccc3OCC)nc12 ; criterion: Papp at 2 h, 1 μM no lower than 30 ×10⁻⁶ cm/s. Met?
Data returned: class 0

----------
tested on: Caco‐2 cells (TC7 clone); conditions: Equation 11 from measured P‐Caco2
For each record, write down the corresponding Calculated P eff from P‐Caco2.

Consider the worked cases shown below.
COMPOUND: COC(=O)C1=C(C)NC(C)=C(C(=O)OCC(C)C)C1c1ccccc1[N+](=O)[O-] (stereo not drawn)
Calculated P eff from P‐Caco2: 5.2 10^−4 cm/s
--
COMPOUND: COc1ccc(C(CN(C)C)C2(O)CCCCC2)cc1 (stereo not drawn)
Calculated P eff from P‐Caco2: 4.0 10^−4 cm/s
--
COMPOUND: CN1CCN2c3ncccc3Cc3ccccc3C2C1 (stereo not drawn)
Calculated P eff from P‐Caco2: 4.0 10^−4 cm/s

Hello, I would appreciate it if you could give Calculated P eff from P‐Caco2 for each entry below.
1. Cc1ccc(O)c([C@H](CCN(C(C)C)C(C)C)c2ccccc2)c1
2. Oc1ccc2c3c1O[C@H]1[C@@H](O)CC[C@@]4(O)[C@@H](C2)N(CC2CCC2)CC[C@]314
3. O=c1[nH]c2ccccc2n1CCCN1CCC(n2c(=O)[nH]c3cc(Cl)ccc32)CC1

Data returned:
["3.6 10^−4 cm/s", "3.8 10^−4 cm/s", "4.3 10^−4 cm/s"]

----------
experiment: Solubility in fasted state simulated intestinal fluid; assay type: physicochemical; conditions: FaSSIF, 37 °C, pH 6.5, fassif, thermodynamic from solid
EXPERIMENTAL_READOUT: solubility at 24 h (µg/mL)
One number for each entry, in µg/mL.

MOLECULE: CCOC(=O)C1=C(C)NC(C)=C(C(=O)OC)C1c1cccc([N+](=O)[O-])c1 (stereo not drawn)
MEASURED: 8
--
MOLECULE: CN1CCN(C2=Nc3cc(Cl)ccc3Nc3ccccc32)CC1
MEASURED: 350
--
MOLECULE: COC(=O)C1=C(C)NC(C)=C(C(=O)OCCN(C)Cc2ccccc2)C1c1cccc([N+](=O)[O-])c1 (stereo not drawn)
MEASURED: 227
--
MOLECULE: O=c1[nH]c2ccccc2n1CCCN1CCC(n2c(=O)[nH]c3cc(Cl)ccc32)CC1
MEASURED: 135
--
MOLECULE: CN(C)CCCN1c2ccccc2Sc2ccc(Cl)cc21
MEASURED: 814

# next molecule below
Data request: Recorded solubility at 24 h for CCOC(=O)C1=C(C)NC(C)=C(C(=O)OC)C1c1cccc(Cl)c1Cl (stereo not drawn) , please?
Data returned: 40

----------
details: human, Caco-2, pH 7.4, with cyclosporine A 10 μM
EXPERIMENTAL_READOUT: Papp at 2 h, 1 μM
Give me the value, and tack the unit on after it.

Answered examples (2):
COMPOUND: COc1ccc(C(CN(C)C)C2(O)CCCCC2)cc1 (centres unmarked)
Papp at 2 h, 1 μM: 33.2 ×10⁻⁶ cm/s
//
COMPOUND: CN1CCN(C2=Nc3cc(Cl)ccc3Nc3ccccc32)CC1
Papp at 2 h, 1 μM: 28.4 ×10⁻⁶ cm/s

Quick batch: Papp at 2 h, 1 μM for everything below.
1. COCCOC(=O)C1=C(C)NC(C)=C(C(=O)OC(C)C)C1c1cccc([N+](=O)[O-])c1 (centres unmarked)
2. COC(=O)C1=C(C)NC(C)=C(C(=O)OCC(C)C)C1c1ccccc1[N+](=O)[O-] (centres unmarked)
3. CN1CCN2c3ncccc3Cc3ccccc3C2C1 (centres unmarked)

Data returned:
1. 22.2 ×10⁻⁶ cm/s
2. 56.7 ×10⁻⁶ cm/s
3. 33.2 ×10⁻⁶ cm/s

----------
assay: Intrinsic metabolic clearance determined in human liver microsomes; type: in vitro ADME; conditions: pH 7.4
EXPERIMENTAL_READOUT: microsomal CLint at 1 μM

Below, 3 molecules whose answers are already recorded.
MOLECULE: COc1ccc(C(CN(C)C)C2(O)CCCCC2)cc1 (stereo not shown) [Venlafaxine]
MEASURED: < 10 µL/min/mg
//
MOLECULE: COc1ccc2[nH]c([S+]([O-])Cc3ncc(C)c(OC)c3C)nc2c1 (stereo not shown) [Omeprazole]
MEASURED: < 10 µL/min/mg
//
MOLECULE: COCCOC(=O)C1=C(C)NC(C)=C(C(=O)OC(C)C)C1c1cccc([N+](=O)[O-])c1 (stereo not shown) [Nimodipine]
MEASURED: > 1000 µL/min/mg

# next molecule below
Data request: Could you share which microsomal CLint at 1 μM value was measured for Cc1ccc(-c2nc3ccc(C)cn3c2CC(=O)N(C)C)cc1 [Zolpidem] ?
Data returned: < 10 µL/min/mg

----------
test system: Caco‐2 cells (TC7 clone); settings: Equation 11 from measured P‐Caco2
EXPERIMENTAL_READOUT: Calculated P eff from P‐Caco2

Could you tell me Calculated P eff from P‐Caco2 for each of these compounds? They are listed below.
1. COCCOC(=O)C1=C(C)NC(C)=C(C(=O)OC(C)C)C1c1cccc([N+](=O)[O-])c1 (stereo not drawn)
2. C=CCc1ccccc1OCC(O)CNC(C)C (stereo not drawn)
3. CCCc1nn(C)c2c(=O)[nH]c(-c3cc(S(=O)(=O)N4CCN(C)CC4)ccc3OCC)nc12
4. CC(C)(C)NC(=O)[C@@H]1C[C@@H]2CCCC[C@@H]2CN1C[C@@H](O)[C@H](Cc1ccccc1)NC(=O)[C@H](CC(N)=O)NC(=O)c1ccc2ccccc2n1
5. CN1CCN(C2=Nc3cc(Cl)ccc3Nc3ccccc32)CC1
6. Cc1nnc2n1-c1ccc(Cl)cc1C(c1ccccc1)=NC2

Data returned:
["3.3 10^−4 cm/s", "3.9 10^−4 cm/s", "3.7 10^−4 cm/s", "1.6 10^−4 cm/s", "3.7 10^−4 cm/s", "4.3 10^−4 cm/s"]
